- Test system: MDR1-MDCK cell monolayers
- EXPERIMENT_NOTES: MDCK-MDR1 permeability assay (BBB penetration potential)
- Type: in vitro ADME
- DETAILS: Papp (B-to-A)/Papp (A-to-B); 5 μM, 120 minutes; separated enantiomers, told apart by chiral retention time
hey, just use Met if measured MDCK MDRP1 Efflux Ratio is less than 9, otherwise Not met

These solved cases illustrate the format of a correct answer.
COMPOUND | CLASS_NAME
CN(c1nnc(-c2cc(F)c(-c3cnn(C)c3)cc2O)s1)[C@H]1C[C@@H]2CC[C@@H](N2)[C@H]1F (racemic) | Met
CN(c1nnc(-c2ccc(-c3cnn(C)c3)cc2O)s1)[C@H]1C[C@@H]2CC[C@@H](N2)[C@H]1F (racemic) | Met
CN(c1nnc(-c2ccc(-c3cnn(C)c3)cc2O)s1)[C@@H]1C[C@H]2CCC[C@H](N2)[C@@H]1F (racemic) | Met
CN(c1nnc(-c2cc(F)c(-c3cn[nH]c3)cc2O)s1)[C@H]1C[C@@H]2CC[C@H]([C@H]1F)N2C (racemic) [24A/24B] | Met
CN(c1nnc(-c2ccc(-c3ccn(C)c(=O)c3)cc2O)s1)[C@@H]1C[C@H]2CC[C@H](N2)[C@@H]1F (racemic) | Not met

Task: Below 9 on MDCK MDRP1 Efflux Ratio? Entry CN(c1nnc(-c2ccc(-c3cc(=O)n(C)cn3)cc2O)s1)[C@@H]1C[C@H]2CC[C@H](N2)[C@@H]1F (racemic)
Output: Not met

Task: For this compound, is MDCK MDRP1 Efflux Ratio lower than 9? CN(c1nnc(-c2ccc(-c3ccn(CF)c(=O)c3)cc2O)s1)[C@@H]1C[C@H]2CC[C@H](N2)[C@@H]1F (racemic) [15A/15B]
Output: Not met

Task: Please state whether MDCK MDRP1 Efflux Ratio is below 9 for CN(c1nnc(-c2ccc(-c3cnn(C)c3)cc2O)s1)[C@H]1C[C@@H]2CC[C@H]([C@H]1F)N2C (racemic) [21A/21B]
Output: Met

###

- System: MDR1-MDCK cell monolayers
- EXPERIMENT_NOTES: MDCK-MDR1 permeability assay (BBB penetration potential)
- Assay type: in vitro ADME
- DETAILS: 5 μM, 120 minutes, pH 7.4
ASSAY_ENDPOINT: MDCK-MDR1: % Recov B-A (%)
Number only, in %; omit the unit.

Solved entries:
MOLECULE | MEASURE_UNIT | NUMERIC_RESULT
CN(c1nnc(-c2ccc(-c3cn[nH]c3)cc2O)s1)[C@H]1C[C@@H]2CC[C@@H](N2)[C@H]1F (single isomer, unassigned) | % | 102
CN(c1nnc(-c2ccc(-c3cnn(C)c3)cc2O)s1)[C@@H]1C[C@H]2CCC[C@H](N2)[C@@H]1F | % | 71

Task: Need MDCK-MDR1: % Recov B-A of CN(c1nnc(-c2ccc(-c3cnn(C)c3)cc2O)s1)[C@H]1C[C@@H]2CCC[C@@H](N2)[C@H]1F , thanks.
Output: 68

###

- Tested on: MDR1-MDCK cell monolayers
- EXPERIMENT_NOTES: MDCK-MDR1 permeability assay (BBB penetration potential)
- Type: in vitro ADME
- DETAILS: 5 μM, 120 minutes, pH 7.4
Entries annotated with measured MDCK-MDR1: % Recov A-B
Your answer should be a plain number; it is taken to be in %.

Some solved entries appear below for comparison.
MOLECULE | NUMERIC_RESULT
COc1cc(-c2ccc(-c3nnc(N(C)[C@@H]4C[C@H]5CC[C@H](N5)[C@@H]4F)s3)c(O)c2)ccn1 (single isomer, unassigned) [Compound E-11A] | 20
CN(c1nnc(-c2ccc(-c3cnn(C)c3)cc2O)s1)[C@H]1C[C@@H]2CCC[C@@H](N2)[C@H]1F [Compound E-1B] | 53
CN(c1nnc(-c2cc(F)c(-c3cn[nH]c3)cc2O)s1)[C@H]1C[C@@H]2CC[C@@H](N2)[C@H]1F (single isomer, unassigned) [Compound E-6B] | 62
CN(c1nnc(-c2ccc(-c3cnn(C)c3)cc2O)s1)[C@@H]1C[C@H]2CCC[C@H](N2)[C@@H]1F [Compound E-1A] | 57
CN(c1nnc(-c2ccc(-c3ccn(C)c(=O)c3)cc2O)s1)[C@@H]1C[C@H]2CC[C@H](N2)[C@@H]1F (single isomer, unassigned) [Compound E-4A] | 93

# evaluate next
Task: Which MDCK-MDR1: % Recov A-B is listed for CN(c1nnc(-c2ccc(-c3cnn(C)c3)cc2O)s1)[C@H]1C[C@@H]2CC[C@@H](N2)[C@H]1F [Compound E-3A] ?
Output: 77
